Known melting point of a selection of compounds

Worked examples, 3 compounds total:
COMPOUND | EXPERIMENTAL_READOUT | OBS_VALUE
CCS(=O)(=O)c1cc(C(F)(F)F)cnc1-c1ncc(-c2cc(C(F)(F)F)ccn2)s1 | melting point | 173 to 175 °C
CCS(=O)(=O)c1cc(C(F)(F)F)cnc1-c1ncc(-c2ccc(C(F)(F)F)nc2)s1 | melting point | 228 to 230 °C
CCS(=O)(=O)c1cc(C(F)(F)F)cnc1-c1ncc(-c2ccc(C(F)(F)F)cn2)s1 | melting point | 208 to 210 °C

# melting point lookup, item `CCS(=O)(=O)c1cc(C(F)(F)F)cnc1-c1nnc(-c2ccc(C(F)(F)F)nc2)s1`
193 to 195 °C

Now the compound `CCSc1cc(C(F)(F)F)ccc1-c1nnc(-c2cncc(C(F)(F)F)c2)s1`
143 to 145 °C

Now the compound `CCS(=O)(=O)c1cc(C(F)(F)F)cnc1-c1nccs1`
110 to 112 °C

Now the compound `CCSc1cc(C(F)(F)F)cnc1-c1nnc(-c2cncc(C(F)(F)F)c2)s1`
151 to 153 °C

Now the compound CCSc1cc(C(F)(F)F)ccc1-c1nnc(-c2ccc(C(F)(F)F)nc2)s1 [Compound P2]
170 to 172 °C
